Hello, the source for this data is patent US12012375B2, in case you need it.

test: Cytotoxicity, MTT assay of cell survival
Assay type: cell-based
conditionLabel: mouse, cultivated mice 3T3-L1 cells, 24 hours incubation
metricName: EC50 at 24 h (µM)

1) CCCCC[C@H](O)/C=C/[C@@H]1[C@@H](C/C=C\CCCC(=O)NCCOC(=O)NCCO[N+](=O)[O-])[C@@H](O)C[C@H]1O; 184

###

System: 3T3-L1 cells
test: Cytotoxicity, MTT assay of cell survival
Format: cell-based
conditionLabel: cultivated mice 3T3-L1 cells, 24 hours incubation
pEC50: −log10 of the molar value.
Catalogue of pEC50 values
metricName: pEC50

1. CCCCC[C@H](O)/C=C/[C@@H]1[C@@H](C/C=C\CCCC(=O)NC2CC2)[C@@H](O)C[C@H]1O; 3.91
2. CCCCCC(O)C=CC1C(O)CC(O)C1CC=CCCCC(=O)N1CCCC1CO [Compound 7, Prostaglandin F2a Amide with L-Prolinol]; 3.98
